This listing pairs compounds with measured IC50.
Biological target: Tyrosine-protein kinase Lck (Homo sapiens, UniProt P06239)
Sequence (P06239 whole entry): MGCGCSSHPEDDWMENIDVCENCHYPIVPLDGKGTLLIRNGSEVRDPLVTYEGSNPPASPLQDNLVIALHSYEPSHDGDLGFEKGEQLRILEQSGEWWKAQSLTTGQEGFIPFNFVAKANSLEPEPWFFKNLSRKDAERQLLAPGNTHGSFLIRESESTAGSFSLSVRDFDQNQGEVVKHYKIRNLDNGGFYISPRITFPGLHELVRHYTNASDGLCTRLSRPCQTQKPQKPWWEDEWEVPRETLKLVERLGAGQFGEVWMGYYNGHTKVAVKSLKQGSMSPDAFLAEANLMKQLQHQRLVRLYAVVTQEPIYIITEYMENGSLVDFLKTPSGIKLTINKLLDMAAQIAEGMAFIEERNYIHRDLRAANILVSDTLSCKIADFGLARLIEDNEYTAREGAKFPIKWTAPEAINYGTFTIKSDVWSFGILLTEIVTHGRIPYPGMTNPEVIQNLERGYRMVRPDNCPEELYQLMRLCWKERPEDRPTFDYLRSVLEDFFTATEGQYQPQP
REPORTED PROPERTY: IC50 (nM)

- RECORD SMILES: "CN1CCN(N(C(=O)Nc2c(Cl)cccc2Cl)c2cc(Nc3ccc(N4CCOCC4)cc3)ncn2)CC1"
  RELATIONAL OPERATOR: "="
  VALUE REPORTED: 230
- RECORD SMILES: "Cc1cccc(Cl)c1NC(=O)N(Cc1ccccc1)c1cc(Nc2ccc(F)cc2)ncn1"
  RELATIONAL OPERATOR: "="
  VALUE REPORTED: 1450
- RECORD SMILES: "CCN(CC)CCOc1ccc(Nc2cc(N(C)C(=O)Nc3c(C)cccc3Cl)ncn2)cc1"
  RELATIONAL OPERATOR: "="
  VALUE REPORTED: 28
- RECORD SMILES: "CN(C(=O)Nc1ccccc1Cl)c1cc(Nc2ccc(N3CCOCC3)cc2)ncn1"
  RELATIONAL OPERATOR: "="
  VALUE REPORTED: 4290
- RECORD SMILES: "CCN(CC)CCNc1cc(N(C)C(=O)Nc2c(Cl)cccc2Cl)ncn1"
  RELATIONAL OPERATOR: ">"
  VALUE REPORTED: 10000
- RECORD SMILES: "CCN(CC)CCOc1ccc(N(C(=O)Nc2c(Cl)cccc2Cl)c2cc(NC)ncn2)cc1"
  RELATIONAL OPERATOR: ">"
  VALUE REPORTED: 10000
- RECORD SMILES: "Cc1cccc(Cl)c1NC(=O)N(C)c1cc(Nc2ccc(N3CCN(C)CC3)cc2)ncn1"
  RELATIONAL OPERATOR: "="
  VALUE REPORTED: 9
- RECORD SMILES: "CCN(CC)CCOc1ccc(Nc2cc(N(C)C(=O)Nc3cc(O)ccc3C)ncn2)cc1"
  RELATIONAL OPERATOR: "="
  VALUE REPORTED: 3
- RECORD SMILES: "CCN(CC)c1ccc(Nc2cc(N(CCCN(C)C)C(=O)Nc3ccccc3Cl)ncn2)cc1"
  RELATIONAL OPERATOR: "="
  VALUE REPORTED: 4490
